# System: INS-1 cells
# Method: INS-1 cell survival after Tm treatment (CellTiter-Glo, intracellular ATP)
# Type: cell-based, rat
# Protocol conditions: % rescue from Tm (0.1 μg/mL)-induced reduction of cell viability, 72 h; Tm alone 0%, DMSO 100%; Table 2
For each record, write down the corresponding Maximum activity.
Answers are plain numbers, in %.

Below are worked cases with known answers.
>>> observed_value("COc1ccccc1CCNc1nc(N2CCCCC2CO)nc2ccccc12 (centres unmarked)")
46.9
>>> observed_value("OCC1CCCCN1c1nc(NCCc2ccc(Cl)cc2)c2ccccc2n1 (centres unmarked)")
57.6
>>> observed_value("COc1ccc(CCNc2nc(N3CCCCC3CO)nc3ccccc23)cc1 (centres unmarked)")
58.6
>>> observed_value("OCC1CCCCN1c1nc(NCCc2cccc(Br)c2)c2ccccc2n1 (centres unmarked)")
51.7

Lab note: next compound to report on.
In plain terms, OCC1CCCCN1c1nc(NCCc2cccc(Cl)c2)c2ccccc2n1 (centres unmarked) has a documented Maximum activity of 46.2
